Provide the reported pIC50 of each item.
Target: TEAD2 (Homo sapiens, UniProt Q15562)
Sequence (Q15562 whole entry, species assumed): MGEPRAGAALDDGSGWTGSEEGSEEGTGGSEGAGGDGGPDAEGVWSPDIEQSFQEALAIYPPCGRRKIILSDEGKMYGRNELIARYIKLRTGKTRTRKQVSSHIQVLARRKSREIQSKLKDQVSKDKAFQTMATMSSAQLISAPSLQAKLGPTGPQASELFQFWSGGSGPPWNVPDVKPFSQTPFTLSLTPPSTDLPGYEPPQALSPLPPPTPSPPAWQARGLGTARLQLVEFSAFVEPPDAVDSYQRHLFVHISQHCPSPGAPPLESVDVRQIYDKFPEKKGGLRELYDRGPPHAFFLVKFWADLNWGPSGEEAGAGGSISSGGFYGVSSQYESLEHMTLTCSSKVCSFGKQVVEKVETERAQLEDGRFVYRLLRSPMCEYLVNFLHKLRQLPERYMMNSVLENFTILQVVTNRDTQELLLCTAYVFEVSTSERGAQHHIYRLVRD
Assay: Lipid HTRF (TR-FRET lipid pocket probe competition), 30 min pre-incubation, TEAD2
Format: binding
Conditions: His-tagged TEAD2, 30 minutes pre-incubation with compound at room temperature; read-out: Lipid HTRF TEAD2 IC50
Procedure: His-tagged TEAD proteins are pre-incubated with TEAD project compounds for 30 minutes at room temperature. Biotinylated lipid pocket probes are then added to the TEAD/Compound mixture and incubated for 60 minutes at room temperature. The lipid pocket probe competes with the test compound for the TEAD lipid pocket until equilibrium is reached. […] The potency of compounds as TEAD lipid pocket binders is determined by IC50 value generated using a non-linear 4 parameter curve fit.
One number for each entry, as −log10 of the molar value.

Worked examples follow.
Request: Requested field: pIC50. Item: `C=CC(=O)Nc1cc(/C=C/[C@H]2CC[C@H](C(F)(F)F)CC2)c(OC)nc1-c1ccccc1`
Response: 6.68

Request: Requested field: pIC50. Item: `CC(C)c1ccc(-c2cc(NC(=O)N(C)C#N)c(C#N)c3c2OCC3)cc1`
Response: 6.74

Request: Requested field: pIC50. Item: `C=CC(=O)N(CCO)c1cc(/C=C/C2CCC(F)(F)CC2)c2c(c1)CCO2`
Response: 6.21

Request: Requested field: pIC50. Item: C=CC(=O)Nc1cnc(OC)c(/C=C/C2CCC(C(F)(F)F)OC2)c1 (single isomer, unassigned) [Enantiomer B from Example 42]
Response: 5.96

Request: Requested field: pIC50. Item: `C=CC(=O)Nc1cc(/C=C/C2CCC(F)(F)CC2)c2ocnc2c1`
Response: 6.07

Provide pIC50 values for the following items, in order.
1. C=CC(=O)Nc1ncc(OC)c(/C=C/C2CCC(F)(F)CC2)n1
2. C=CC(=O)Nc1cc(/C=C/[C@H]2CC[C@H](C(F)(F)F)CC2)c(OC)nc1C#N

Response:
1. 6.28
2. 6.77

Provide pIC50 values for the following items, in order.
1. C=CC(=O)Nc1ccc(OC)c(/C=C/[C@H]2CC[C@H](C(F)(F)F)CC2)c1
2. C=CC(=O)Nc1cc(/C=C/[C@H]2CC[C@H](C(F)(F)F)CC2)c(OC)cn1
3. C=CC(=O)Nc1cc(/C=C/[C@H]2CC[C@H](C(F)(F)F)CC2)c(OC)c(C2CC2)n1
4. C=CC(=O)Nc1cc(/C=C/c2ccc(Cl)cc2)c2c(c1)CCO2

Response:
1. 6.60
2. 7.40
3. 5.98
4. 5.89

----------
Provide the reported pIC50 of each item.
target: TEAD1 (Homo sapiens, UniProt P28347); experiment: Lipid HTRF (TR-FRET lipid pocket probe competition), 30 min pre-incubation, TEAD1; format: binding; conditions: His-tagged TEAD1, 30 minutes pre-incubation with compound at room temperature; read-out: Lipid HTRF TEAD1 IC50
Sequence (P28347 whole entry, species assumed): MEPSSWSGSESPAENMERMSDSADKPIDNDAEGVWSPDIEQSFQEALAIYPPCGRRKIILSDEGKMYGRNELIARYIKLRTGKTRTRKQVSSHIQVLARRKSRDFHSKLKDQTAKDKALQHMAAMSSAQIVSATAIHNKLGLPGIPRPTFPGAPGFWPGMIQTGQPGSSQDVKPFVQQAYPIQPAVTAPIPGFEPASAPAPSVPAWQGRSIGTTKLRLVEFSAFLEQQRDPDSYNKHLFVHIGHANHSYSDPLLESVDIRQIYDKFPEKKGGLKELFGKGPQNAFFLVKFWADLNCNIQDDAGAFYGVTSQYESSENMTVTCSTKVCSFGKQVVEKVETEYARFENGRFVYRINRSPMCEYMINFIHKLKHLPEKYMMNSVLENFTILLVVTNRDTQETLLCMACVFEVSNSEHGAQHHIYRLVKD
Answers are plain numbers, as −log10 of the molar value.

Request: Requested field: pIC50. Item: CC(C)c1ccc(-c2cc(NC(=O)C3(CCC(N)=O)CO3)c(C#N)c3c2OCC3)cc1 (single isomer, unassigned) [Enantiomer B from Example 52]
Response: 5.22

Request: Requested field: pIC50. Item: C=C(C(=O)Nc1cnc(OC)c(/C=C/C2CCC(F)(F)CC2)c1)c1ccccc1 [Final product from Example 20]
Response: 6.92

New cases:
Request: Requested field: pIC50. Item: CC(C)c1ccc(-c2cc(NC(=O)C3(C)CO3)c(C#N)c3c2OCC3)cc1 (single isomer, unassigned) [Enantiomer B from Example 43]
Response: 6.57

----------
Target: TEAD2 (Homo sapiens, UniProt Q15562)
Assay: Lipid HTRF (TR-FRET lipid pocket probe competition), 30 min pre-incubation, TEAD2
Format: binding
Conditions: His-tagged TEAD2, 30 minutes pre-incubation with compound at room temperature; read-out: Lipid HTRF TEAD2 IC50
Method: His-tagged TEAD proteins are pre-incubated with TEAD project compounds for 30 minutes at room temperature. Biotinylated lipid pocket probes are then added to the TEAD/Compound mixture and incubated for 60 minutes at room temperature. The lipid pocket probe competes with the test compound for the TEAD lipid pocket until equilibrium is reached. […] The potency of compounds as TEAD lipid pocket binders is determined by IC50 value generated using a non-linear 4 parameter curve fit.
pIC50: −log10 of the molar value.
Binary call on pIC50: Criterion met from 7 upward, Criterion not met beneath that.

See these solved cases before continuing.
Request: Determine whether measured pIC50 meets or exceeds 7 for C=CC(=O)Nc1cc2c(c(CO[C@H]3CC[C@H](C(F)(F)F)CC3)c1)OCC2 [Final product from Example 34]
Response: Criterion not met

Request: Determine whether measured pIC50 meets or exceeds 7 for CC(C)c1ccc(-c2cc(NC(=O)C3(C)CO3)c(C#N)c3c2OCC3)cc1 (single isomer, unassigned) [Enantiomer B from Example 43]
Response: Criterion not met

Request: Determine whether measured pIC50 meets or exceeds 7 for C=CC(=O)Nc1ccc(OC)c(/C=C/CC2CCCC2)c1 [Final product from Example 14]
Response: Criterion met

Request: Determine whether measured pIC50 meets or exceeds 7 for CC(C)c1ccc(-c2cc(NC(=O)[C@H]3CO3)c(C#N)c3c2OCC3)cc1 [Final product from Example 45]
Response: Criterion not met

Request: Determine whether measured pIC50 meets or exceeds 7 for COc1ncc(NC(=O)/C=C/C#N)cc1/C=C/C1CCC(F)(F)CC1 [Final product from Example 21]
Response: Criterion not met

Request: Determine whether measured pIC50 meets or exceeds 7 for N#Cc1c(NC(=O)[C@H]2CO2)cc(-c2ccc(OC(F)(F)F)cc2)c2c1CCO2 [Final product from Example 51]
Response: Criterion not met

Request: Determine whether measured pIC50 meets or exceeds 7 for C=CC(=O)Nc1cnc(OC)c(/C=C/CC(C)C)c1 [Final product from Example 18]
Response: Criterion not met

Request: Determine whether measured pIC50 meets or exceeds 7 for N#Cc1c(NC(=O)[C@@H]2CO2)cc(-c2ccc(OC(F)(F)F)cc2)c2c1CCO2 [Final product from Example 50]
Response: Criterion met

Request: Determine whether measured pIC50 meets or exceeds 7 for C=CC(=O)Nc1cnc(OC)c(-c2ccc(C(C)C)cc2)c1 [Final product from Example 41]
Response: Criterion not met

Request: Determine whether measured pIC50 meets or exceeds 7 for C=CC(=O)Nc1cnc(OC)c(COC2CCC(F)(F)CC2)c1 [Final product from Example 10]
Response: Criterion not met

# ---- query molecule ----
Request: Determine whether measured pIC50 meets or exceeds 7 for CC(C)c1ccc(-c2cc(N(C)C(=O)NC#N)c(C#N)c3c2OCC3)cc1 [Final product from Example 47]
Response: Criterion not met

----------
molecular target: TEAD4 (Homo sapiens, UniProt Q15561); assay: Lipid HTRF (TR-FRET lipid pocket probe competition), 30 min pre-incubation, TEAD4; assay type: binding; details: His-tagged TEAD4, 30 minutes pre-incubation with compound at room temperature; read-out: Lipid HTRF TEAD4 IC50
Sequence (Q15561 whole entry, species assumed): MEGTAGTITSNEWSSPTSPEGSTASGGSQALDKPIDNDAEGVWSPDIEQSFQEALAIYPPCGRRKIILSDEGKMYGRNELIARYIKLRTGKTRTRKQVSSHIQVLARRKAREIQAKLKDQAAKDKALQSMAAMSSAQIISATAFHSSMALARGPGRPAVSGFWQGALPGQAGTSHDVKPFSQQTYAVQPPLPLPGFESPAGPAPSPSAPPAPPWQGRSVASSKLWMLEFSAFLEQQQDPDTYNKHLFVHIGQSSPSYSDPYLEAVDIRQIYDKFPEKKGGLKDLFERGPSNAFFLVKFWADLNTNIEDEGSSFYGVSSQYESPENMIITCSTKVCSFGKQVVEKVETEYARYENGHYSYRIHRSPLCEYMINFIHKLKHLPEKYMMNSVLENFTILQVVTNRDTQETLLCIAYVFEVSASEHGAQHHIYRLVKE
One threshold, 300 nM, splits the recorded IC50 values: lower ones are Satisfied, equal or higher ones are Not satisfied.

See these solved cases before continuing.
Request: Please check: IC50 for `CC(F)(F)c1ccc(-c2cc(NC(=O)[C@H]3CO3)c(C#N)c3c2OCC3)cc1` , strictly under 300 nM or not?
Response: Not satisfied

Request: Please check: IC50 for `CC(C)c1ccc(-c2cc(NC(=O)[C@@H]3CO3)c(C#N)c3c2OCC3)cc1` , strictly under 300 nM or not?
Response: Satisfied

Request: Please check: IC50 for `C=CC(=O)Nc1ccc(OC)c(/C=C/C2CCC(F)(F)CC2)c1` , strictly under 300 nM or not?
Response: Satisfied

Request: Please check: IC50 for `C=CC(=O)Nc1cnc(OC)c(/C=C/C2CC(F)(F)C2)c1` , strictly under 300 nM or not?
Response: Not satisfied

Request: Please check: IC50 for `C=CC(=O)Nc1cc(-c2ccc(C(C)C)cc2)c(OC)cc1F` , strictly under 300 nM or not?
Response: Satisfied

New cases:
Request: Please check: IC50 for `C=CC(=O)Nc1cc(/C=C/C2CCC(F)(F)CC2)c2c(c1)CCO2` , strictly under 300 nM or not?
Response: Satisfied

Request: Please check: IC50 for `C=CC(=O)Nc1cc(/C=C/[C@H]2CC[C@H](C(F)(F)F)CC2)c(OC)c(C)n1` , strictly under 300 nM or not?
Response: Satisfied

Request: Please check: IC50 for `C=CC(=O)Nc1cnc(OC)c(/C=C/C2CCC(F)(F)CC2)c1` , strictly under 300 nM or not?
Response: Not satisfied

Request: Please check: IC50 for `C=CC(=O)Nc1cnc2ccnc(O[C@H]3CC[C@H](C(F)(F)F)CC3)c2c1` , strictly under 300 nM or not?
Response: Satisfied

Request: Please check: IC50 for `CC#CC(=O)Nc1cnc(OC)c(/C=C/[C@H]2CC[C@H](C(F)(F)F)CC2)c1` , strictly under 300 nM or not?
Response: Not satisfied

Request: Please check: IC50 for `C=CC(=O)Nc1cnc(OC)c(COC2CC3(CC3)C2)c1` , strictly under 300 nM or not?
Response: Not satisfied

Request: Please check: IC50 for `C=CC(=O)Nc1cc(/C=C/[C@H]2CC[C@H](C(F)(F)F)CC2)c(OC)nc1C(N)=O` , strictly under 300 nM or not?
Response: Satisfied
